meta.source: paper PMC9276671

- Protocol: Plasma pharmacokinetics of ALM201 in Phase I patients (validated LC-MS/MS, Phoenix WinNonlin)
- Measurement Parameters: human, plasma, sc, 100 mg, Plasma concentration, geometric mean (CV%), 100 mg SC, day 18 cycle 1, 1 h after dosing, n = 2; LC-MS/MS
No end group written: not given here.
Quantity Name: level at 1 h (µg/mL)
API: value field is a number in µg/mL; no unit string.

// recorded level at 1 h for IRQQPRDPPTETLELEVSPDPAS [ALM201] : 1.84

====

- Protocol: Plasma pharmacokinetics of ALM201 in Phase I patients (validated LC-MS/MS, Phoenix WinNonlin)
- Measurement Parameters: human, plasma, sc, 160 mg, Plasma concentration, geometric mean (CV%), 160 mg SC, day 3 cycle 1, 2 h after dosing, n = 3; LC-MS/MS
No end group written: not given here.
Quantity Name: level at 2 h (µg/mL)
API: value field is a number in µg/mL; no unit string.

// recorded level at 2 h for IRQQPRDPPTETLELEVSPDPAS [ALM201] : 1.35

====

- Protocol: Plasma pharmacokinetics of ALM201 in Phase I patients (validated LC-MS/MS, Phoenix WinNonlin)
- Measurement Parameters: human, plasma, sc, 200 mg, Plasma concentration, geometric mean (CV%), 200 mg SC, day 3 cycle 1, 5 h after dosing, n = 4; LC-MS/MS
No end group written: not given here.
Quantity Name: level at 5 h (ng/mL)
API: value field is a number in ng/mL; no unit string.

// recorded level at 5 h for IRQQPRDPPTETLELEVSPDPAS [ALM201] : 958

====

- Protocol: Plasma pharmacokinetics of ALM201 in Phase I patients (validated LC-MS/MS, Phoenix WinNonlin)
- Measurement Parameters: human, plasma, sc, 300 mg, Plasma concentration, geometric mean (CV%), 300 mg SC, day 18 cycle 1, 7 h after dosing, n = 3; LC-MS/MS
No end group written: not given here.
Quantity Name: level at 7 h (ng/mL)
API: value field is a number in ng/mL; no unit string.

// recorded level at 7 h for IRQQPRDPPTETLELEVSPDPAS [ALM201] : 767

====

- Protocol: Plasma pharmacokinetics of ALM201 in Phase I patients (validated LC-MS/MS, Phoenix WinNonlin)
- Measurement Parameters: human, plasma, sc, 160 mg, Plasma concentration, geometric mean (CV%), 160 mg SC, day 1 cycle 1, 6 h after dosing, n = 3; LC-MS/MS
No end group written: not given here.
Quantity Name: level at 6 h

// recorded level at 6 h for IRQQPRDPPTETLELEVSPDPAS [ALM201] : 283 ng/mL

====

- Protocol: Plasma pharmacokinetics of ALM201 in Phase I patients (validated LC-MS/MS, Phoenix WinNonlin)
- Measurement Parameters: human, plasma, sc, 200 mg, Plasma concentration, geometric mean (CV%), 200 mg SC, day 1 cycle 1, 0.75 h after dosing, n = 4; LC-MS/MS
No end group written: not given here.
Quantity Name: level at 0.75 h (ng/mL)
API: value field is a number in ng/mL; no unit string.

// recorded level at 0.75 h for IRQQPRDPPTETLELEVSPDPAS [ALM201] : 1040

====

- Protocol: Plasma pharmacokinetics of ALM201 in Phase I patients (validated LC-MS/MS, Phoenix WinNonlin)
- Measurement Parameters: human, plasma, sc, 100 mg, Plasma concentration, geometric mean (CV%), 100 mg SC, day 1 cycle 1, 2 h after dosing, n = 4; LC-MS/MS
No end group written: not given here.
Quantity Name: level at 2 h (ng/mL)
API: value field is a number in ng/mL; no unit string.

// recorded level at 2 h for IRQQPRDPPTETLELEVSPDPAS [ALM201] : 1590

====

- Protocol: Plasma pharmacokinetics of ALM201 in Phase I patients (validated LC-MS/MS, Phoenix WinNonlin)
- Measurement Parameters: human, plasma, sc, 10 mg, Tmax, median, 10 mg SC, day 18 cycle 2, n = 1; plasma LC-MS/MS
No end group written: not given here.
Quantity Name: Tmax (h)
API: value field is a number in h; no unit string.

// recorded Tmax for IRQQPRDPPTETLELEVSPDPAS [ALM201] : 2

====

- Protocol: Plasma pharmacokinetics of ALM201 in Phase I patients (validated LC-MS/MS, Phoenix WinNonlin)
- Measurement Parameters: human, plasma, sc, 300 mg, Plasma concentration, geometric mean (CV%), 300 mg SC, day 18 cycle 2, samples collected at 7.0 hours, n = 3; LC-MS/MS
No end group written: not given here.
Quantity Name: level at 7 h (ng/mL)
API: value field is a number in ng/mL; no unit string.

// recorded level at 7 h for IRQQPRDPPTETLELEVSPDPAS [ALM201] : 485

====

- Protocol: Plasma pharmacokinetics of ALM201 in Phase I patients (validated LC-MS/MS, Phoenix WinNonlin)
- Measurement Parameters: human, plasma, sc, 100 mg, Plasma concentration, geometric mean (CV%), 100 mg SC, day 3 cycle 1, 5 h after dosing, n = 4; LC-MS/MS
No end group written: not given here.
Quantity Name: level at 5 h (ng/mL)
API: value field is a number in ng/mL; no unit string.

// recorded level at 5 h for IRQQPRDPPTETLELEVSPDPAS [ALM201] : 928

====

- Protocol: Plasma pharmacokinetics of ALM201 in Phase I patients (validated LC-MS/MS, Phoenix WinNonlin)
- Measurement Parameters: human, plasma, sc, 10 mg, Plasma concentration, geometric mean (CV%), 10 mg SC, day 18 cycle 4, 3.5 h after dosing, n = 1; LC-MS/MS
No end group written: not given here.
Quantity Name: level at 3.5 h

// recorded level at 3.5 h for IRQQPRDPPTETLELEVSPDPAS [ALM201] : 157 ng/mL

====

- Protocol: Plasma pharmacokinetics of ALM201 in Phase I patients (validated LC-MS/MS, Phoenix WinNonlin)
- Measurement Parameters: human, plasma, sc, 300 mg, Plasma concentration, geometric mean (CV%), 300 mg SC, day 1 cycle 1, 1.5 h after dosing, n = 3; LC-MS/MS
No end group written: not given here.
Quantity Name: level at 1.5 h (ng/mL)
API: value field is a number in ng/mL; no unit string.

// recorded level at 1.5 h for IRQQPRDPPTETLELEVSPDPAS [ALM201] : 2250

====

- Protocol: Plasma pharmacokinetics of ALM201 in Phase I patients (validated LC-MS/MS, Phoenix WinNonlin)
- Measurement Parameters: human, plasma, sc, 80 mg, AUC0-t, Gmean (CV), 80 mg SC, day 3 cycle 1, n = 3; plasma LC-MS/MS
No end group written: not given here.
Quantity Name: AUC(0-t)
Could you write the number and then its unit?

// recorded AUC(0-t) for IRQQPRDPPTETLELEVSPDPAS [ALM201] : 2970 ng·h/mL

====

- Protocol: Plasma pharmacokinetics of ALM201 in Phase I patients (validated LC-MS/MS, Phoenix WinNonlin)
- Measurement Parameters: human, plasma, sc, 160 mg, Plasma concentration, geometric mean (CV%), 160 mg SC, day 18 cycle 1, 0.5 h after dosing, n = 3; LC-MS/MS
No end group written: not given here.
Quantity Name: level at 0.5 h (ng/mL)
API: value field is a number in ng/mL; no unit string.

// recorded level at 0.5 h for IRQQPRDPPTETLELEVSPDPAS [ALM201] : 940

====

- Protocol: Plasma pharmacokinetics of ALM201 in Phase I patients (validated LC-MS/MS, Phoenix WinNonlin)
- Measurement Parameters: human, plasma, sc, 100 mg, Plasma concentration, geometric mean (CV%), 100 mg SC, day 3 cycle 1, 1.5 h after dosing, n = 4; LC-MS/MS
No end group written: not given here.
Quantity Name: level at 1.5 h (ng/mL)
API: value field is a number in ng/mL; no unit string.

// recorded level at 1.5 h for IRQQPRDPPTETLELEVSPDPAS [ALM201] : 2530

====

- Protocol: Plasma pharmacokinetics of ALM201 in Phase I patients (validated LC-MS/MS, Phoenix WinNonlin)
- Measurement Parameters: human, plasma, sc, 160 mg, Plasma concentration, geometric mean (CV%), 160 mg SC, day 3 cycle 1, 1.5 h after dosing, n = 3; LC-MS/MS
No end group written: not given here.
Quantity Name: level at 1.5 h (ng/mL)
API: value field is a number in ng/mL; no unit string.

// recorded level at 1.5 h for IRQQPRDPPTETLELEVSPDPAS [ALM201] : 1460

====

- Protocol: Plasma pharmacokinetics of ALM201 in Phase I patients (validated LC-MS/MS, Phoenix WinNonlin)
- Measurement Parameters: human, plasma, sc, 20 mg, Plasma concentration, geometric mean (CV%), 20 mg SC, day 3 cycle 1, 0.5 h after dosing, n = 1; LC-MS/MS
No end group written: not given here.
Quantity Name: level at 0.5 h (ng/mL)
API: value field is a number in ng/mL; no unit string.

// recorded level at 0.5 h for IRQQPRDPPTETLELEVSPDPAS [ALM201] : 210
